Source: DBAASP

MIC data for Trichosporon beigelii KCTC 7707 follow.
Could you give the number and then its unit, please?

Example entries begin here.
Inquiry: Please look at CC[C@H](C)[C@H](NC(=O)[C@H](CCCCN)NC(=O)[C@H](CO)NC(=O)[C@H](Cc1ccccc1)NC(=O)[C@H](CC(C)C)NC(=O)[C@H](CCCCN)NC(=O)[C@H](CCC(=O)O)NC(=O)[C@H](CC(C)C)NC(=O)[C@H](CCCN=C(N)N)NC(=O)[C@H](CCCCN)NC(=O)[C@H](Cc1ccccc1)NC(=O)[C@H](Cc1c[nH]c2ccccc12)NC(=O)[C@@H](N)CCCCN)C(N)=O and tell me its recorded MIC on Trichosporon beigelii KCTC 7707.
Reply text: 1.56 µM

Inquiry: Please look at CC(C)C[C@H](N)C(=O)N[C@@H](CCCN=C(N)N)C(=O)N[C@@H](CCC(N)=O)C(=O)N[C@@H](CO)C(=O)N[C@@H](CCC(N)=O)C(=O)N[C@@H](Cc1ccccc1)C(=O)N[C@H](C(=O)NCC(=O)N[C@@H](CO)C(=O)N[C@@H](CCCN=C(N)N)C(N)=O)C(C)C and tell me its recorded MIC on Trichosporon beigelii KCTC 7707.
Reply text: 21.3 µM

Inquiry: Please look at CC[C@H](C)[C@H](NC(=O)[C@H](CC(C)C)NC(=O)[C@H](CCCCN)NC(=O)[C@H](CCCCN)NC(=O)[C@H](CC(C)C)NC(=O)[C@H](CCCN=C(N)N)NC(=O)[C@H](CCCCN)NC(=O)[C@@H](N)Cc1ccccc1)C(=O)N[C@@H](CO)C(=O)N[C@@H](Cc1c[nH]c2ccccc12)C(=O)N[C@H](C(=O)N[C@@H](CCCCN)C(=O)N[C@@H](CCCN=C(N)N)C(=O)N[C@@H](CCCCN)C(=O)N[C@@H](CCCN=C(N)N)C(=O)N[C@@H](CCC(N)=O)C(=O)N[C@@H](CCC(N)=O)C(N)=O)[C@@H](C)CC and tell me its recorded MIC on Trichosporon beigelii KCTC 7707.
Reply text: 1 µM

Lab note: next compound to report on.
Inquiry: Please look at CC[C@H](C)[C@H](NC(=O)CNC(=O)[C@@H](NC(=O)[C@H](CCCCN)NC(=O)[C@H](CCCCN)NC(=O)[C@H](Cc1ccccc1)NC(=O)[C@H](CC(C)C)NC(=O)[C@H](CCCCN)NC(=O)[C@H](Cc1c[nH]c2ccccc12)NC(=O)[C@@H](N)CCCCN)[C@@H](C)CC)C(=O)NCC(=O)N[C@@H](CCCCN)C(=O)N[C@@H](Cc1ccccc1)C(=O)N[C@@H](CC(C)C)C(=O)N[C@@H](CCCCN)C(=O)N[C@@H](CCCCN)C(=O)N[C@@H](CCCCN)C(N)=O and tell me its recorded MIC on Trichosporon beigelii KCTC 7707.
Reply text: 6.25 µM

* * *

MIC data for Staphylococcus epidermidis follow.

Inquiry: Please look at CC(C)C[C@H](NC(=O)CNC(=O)[C@H](Cc1ccccc1)NC(=O)[C@H](CCCN=C(N)N)NC(=O)[C@H](CCCN=C(N)N)NC(=O)CNC(=O)[C@H](Cc1cnc[nH]1)NC(=O)[C@H](CCCN=C(N)N)NC(=O)CNC(=O)[C@@H](NC(=O)[C@H](C)NC(=O)[C@@H](N)CO)C(C)C)C(=O)N[C@@H](CCCN=C(N)N)C(=O)N[C@@H](CCCCN)C(=O)N[C@@H](Cc1cnc[nH]1)C(=O)N[C@@H](CCCN=C(N)N)C(=O)N[C@@H](CCCCN)C(=O)N[C@@H](Cc1cnc[nH]1)C(=O)O and tell me its recorded MIC on Staphylococcus epidermidis.
Reply text: ≥ 50 µM

Lab note: next molecule to report on.
Inquiry: Please look at CC[C@H](C)[C@H](NC(=O)[C@H](CCCCN)NC(=O)[C@H](CO)NC(=O)[C@H](Cc1ccccc1)NC(=O)[C@H](CC(C)C)NC(=O)[C@H](CCCCN)NC(=O)[C@H](CCC(=O)O)NC(=O)[C@H](CC(C)C)NC(=O)[C@H](CCCN=C(N)N)NC(=O)[C@H](CCCCN)NC(=O)[C@H](CO)NC(=O)[C@@H](NC(=O)[C@H](CCCCN)NC(=O)[C@H](CCCCN)NC(=O)[C@H](C)N)C(C)C)C(=O)N[C@@H](CCC(N)=O)C(=O)N[C@@H](CC(N)=O)C(=O)N[C@@H](CC(=O)O)C(=O)N[C@@H](CCCCN)C(N)=O and tell me its recorded MIC on Staphylococcus epidermidis.
Reply text: 12.5 µM
